- Measurement target: T1, HLTF HIRAN domain (UniProt Q14527 51-171)
- T1 sequence: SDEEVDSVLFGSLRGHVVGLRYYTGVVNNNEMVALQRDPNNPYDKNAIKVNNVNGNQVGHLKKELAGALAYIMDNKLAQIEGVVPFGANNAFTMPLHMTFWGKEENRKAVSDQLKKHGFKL
- Experimental protocol: competition
Item-by-item account of log10 of IC50
Measured quantity: log10 of IC50 (log10 of the value in µM)

> print(dat)
         binder  number
1  CTTG (ssDNA)    0.20
2   TCG (ssDNA)    0.46
3   TTG (ssDNA)    0.45
4   GGT (ssDNA)    0.73
5   TAT (ssDNA)    1.54
6   CCG (ssDNA)    0.56
7   GGG (ssDNA)    1.31
8  ATTG (ssDNA)    0.26
